Quick list: REVEAL 0 hrs (% of positive control signal) per entry.
target: T1, HLA DQA1*0102:DQB1*0602, P01920; assay: REVEAL class II binding assay (cell-free)
T1 chain 1: not shown
T1 chain 2: not shown
Readout: REVEAL 0 hrs (% of positive control signal)

ALSRGFGSGIITSNA (modifications not checked) [Peptide #18 (Hemagglutinin fragment)] | 0
ALNRGSGSGIITSDA (modifications not checked) [Peptide #17 (Hemagglutinin fragment)] | 0
SGAAGAAVKGVGTMV (modifications not checked) [Peptide #6 (Common CP sequence)] | 0.1
VGKMIGGIGRFYIQM (modifications not checked) [Peptide #5 (Common CP sequence)] | 77.3
RELILYDKEEIRRIWRQANNG (modifications not checked) [Peptide #1 (X179-A NP fragment)] | 24.4
LILYDKEEMRRIWRQ (modifications not checked) [Peptide #4 (X181 NP fragment)] | 0.5
LTVAAWSVKTSPLNM (modifications not checked) [Peptide #13 (Reverse of #10)] | 0.9
